Give measured KD^Rel (relative dissociation constant) for each item. Keep answers brief.
target: hepatitis B virus core antigen (HBcAg) (hepatitis B virus); test: phage-binding assay in solution: phage incubated with HBcAg, free phage caught on HBcAg-coated wells and titered
Sequence (P03147 whole entry): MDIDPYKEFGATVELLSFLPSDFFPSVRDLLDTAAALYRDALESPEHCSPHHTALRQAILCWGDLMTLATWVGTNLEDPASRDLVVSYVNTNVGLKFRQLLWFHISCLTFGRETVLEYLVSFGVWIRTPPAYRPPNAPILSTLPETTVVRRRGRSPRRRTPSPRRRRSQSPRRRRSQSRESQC

binder: ADGSLLGRMKPA (peptide, not shown: large carriers) [phage 1]
valueReported: 322 nM
//
binder: ADGTLLGRMKLA (peptide, not shown: large carriers) [phage 4]
valueReported: 20 nM
//
binder: ADGHRSSLLGRMKGA (peptide, not shown: large carriers) [phage 4B-7]
valueReported: 1.4 nM

Kindly review the next binder as well.
Return KD^Rel (relative dissociation constant) for the following binder: ADGYQRSLLGRMKGA (peptide, not shown: large carriers) [phage 4A-28]
0.88 nM

Hey, just so you know, these numbers are from patent US6544520B1.
